Data origin, for the record: patent US20220331303A1

- experimental_protocol: Multiple-dose plasma PK of IV Compound A in patients with NT2
- Format: in vivo, human
- cond: human, plasma, intravenous, 112 mg, Cmpd A 112 mg; 1 Hour Postdose at Day 1
assay_readout: concentration at 1 h
Returns: string containing the numeric result and its unit.

Request: Query (compound): COC(=O)N1CCC[C@H](NS(C)(=O)=O)[C@@H]1CO[C@H]1CC[C@@H](c2ccccc2)CC1 ; field requested: concentration at 1 h
Result: 123 ng/mL

----------
- experimental_protocol: Plasma PK of Compound A after a single 9-hour IV infusion in sleep-deprived healthy male subjects
- Format: in vivo, human
- cond: male, human, plasma, iv, 44 mg, 44 mg 9-h IV infusion; 1 h post infusion start; read-out: Plasma concentration (GM)
assay_readout: concentration at 1 h (ng/mL)
Value expressed in ng/mL; do not type the unit.

Request: Return reported concentration at 1 h; argument: COC(=O)N1CCC[C@H](NS(C)(=O)=O)[C@@H]1CO[C@H]1CC[C@@H](c2ccccc2)CC1 [Compound A]
Result: 63.1

----------
- experimental_protocol: Multiple-dose plasma PK of IV Compound A in patients with NT2
- Assay type: in vivo, human
- cond: human, plasma, intravenous, 112 mg, Cmpd A 112 mg; Day 1; read-out: Cmax Mean
assay_readout: Cmax (ng/mL)
Write the value in ng/mL as a bare number.

Request: Recorded Cmax of COC(=O)N1CCC[C@H](NS(C)(=O)=O)[C@@H]1CO[C@H]1CC[C@@H](c2ccccc2)CC1 , please.
Result: 172

----------
- experimental_protocol: Multiple-dose plasma PK of IV Compound A in patients with NT2
- Type: in vivo, human
- cond: human, plasma, intravenous, 112 mg, Cmpd A 112 mg; Day 7; read-out: AUClast Mean
assay_readout: AUC(0-t) (ng·h/mL)
Express your answer in ng·h/mL, writing the number without its unit.

Request: Entry COC(=O)N1CCC[C@H](NS(C)(=O)=O)[C@@H]1CO[C@H]1CC[C@@H](c2ccccc2)CC1 [Compound A] : reported AUC(0-t) = ?
Result: 1530

----------
- experimental_protocol: Multiple-dose plasma PK of IV Compound A in patients with NT2
- Type: in vivo, human
- cond: human, plasma, intravenous, 44 mg, Cmpd A 44 mg; 1 Hour Postdose at Day 1
assay_readout: concentration at 1 h (ng/mL)
State the answer as a number, implicitly in ng/mL.

Request: Looking for the measured concentration at 1 h of COC(=O)N1CCC[C@H](NS(C)(=O)=O)[C@@H]1CO[C@H]1CC[C@@H](c2ccccc2)CC1 [Compound A] , can you help?
Result: 47.4

----------
- experimental_protocol: Plasma PK of Compound A after a single 9-hour IV infusion in sleep-deprived healthy male subjects
- Format: in vivo, human
- cond: male, human, plasma, iv, 44 mg, 44 mg [LD] single 9-hour IV infusion; read-out: CL (Median) (converted)
assay_readout: clearance (mL/min)
Use mL/min as the unit, but write only the number.

Request: Dear colleague, I am looking for the recorded clearance of the following compound: COC(=O)N1CCC[C@H](NS(C)(=O)=O)[C@@H]1CO[C@H]1CC[C@@H](c2ccccc2)CC1 [Compound A]
Result: 805

----------
- experimental_protocol: Multiple-dose plasma PK of IV Compound A in patients with NT2
- Type: in vivo, human
- cond: human, plasma, intravenous, 112 mg, Cmpd A 112 mg; Day 1; read-out: CL Mean (converted)
- Protocol: The purpose of the study was to evaluate the safety, tolerability, pharmacokinetics and pharmacodynamics of Compound A after multiple days of IV administration in patients with NT2. NT2 patients were evaluated in Cohort C1 and C2 (Table 30). Compound A or placebo were administered via IV infusion over 9 hours once daily for 7 days. […] In this part, potential efficacy of Compound A was evaluated with MWT, ESS, KSS, night-time PSG (NPSG), and PGI-C as an exploratory PD assessment. […]
assay_readout: clearance

Request: What measured clearance goes with COC(=O)N1CCC[C@H](NS(C)(=O)=O)[C@@H]1CO[C@H]1CC[C@@H](c2ccccc2)CC1 ?
Result: 1260 mL/min
